# SYSTEM: RAF kinases (Homo sapiens, UniProt P15056, V600E)
# Sequence (P15056 whole entry V600E): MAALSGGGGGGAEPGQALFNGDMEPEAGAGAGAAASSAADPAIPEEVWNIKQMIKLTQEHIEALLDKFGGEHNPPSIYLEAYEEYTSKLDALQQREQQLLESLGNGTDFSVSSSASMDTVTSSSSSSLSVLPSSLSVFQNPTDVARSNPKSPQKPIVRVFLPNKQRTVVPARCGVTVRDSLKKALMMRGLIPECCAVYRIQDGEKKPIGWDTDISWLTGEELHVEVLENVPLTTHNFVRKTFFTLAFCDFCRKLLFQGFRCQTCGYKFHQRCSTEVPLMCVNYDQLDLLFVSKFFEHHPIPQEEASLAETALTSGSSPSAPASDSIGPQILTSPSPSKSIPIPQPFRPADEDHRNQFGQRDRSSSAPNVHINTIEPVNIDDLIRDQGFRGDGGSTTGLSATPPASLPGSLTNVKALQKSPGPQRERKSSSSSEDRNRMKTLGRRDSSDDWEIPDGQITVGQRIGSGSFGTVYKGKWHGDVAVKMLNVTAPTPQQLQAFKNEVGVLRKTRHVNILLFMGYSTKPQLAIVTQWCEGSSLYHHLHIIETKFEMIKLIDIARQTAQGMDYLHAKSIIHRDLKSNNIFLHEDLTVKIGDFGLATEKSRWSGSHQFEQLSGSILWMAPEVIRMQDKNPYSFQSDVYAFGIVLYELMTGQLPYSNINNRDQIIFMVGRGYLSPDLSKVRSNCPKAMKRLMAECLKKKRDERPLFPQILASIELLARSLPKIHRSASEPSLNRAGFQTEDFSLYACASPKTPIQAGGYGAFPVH
# ASSAY_OVERVIEW: biochemical
Where a name gives a salt, the structure may show the parent alone.
RESULT_TYPE: Kd

Solved cases below.
| COMPOUND | Kd |
| --- | --- |
| COc1cc2ncnc(Sc3cccc(NC(=O)Nc4cc(C(C)(C)C)nn4-c4ccccc4F)c3)c2cc1OC [Ex 371] | 250 to 500 nM |
| COCC(C)(C)c1cc(NC(=O)Nc2cccc(Oc3ncnc4cc(OC)c(OC)cc34)c2)no1 [Ex 130] | 250 to 500 nM |
| COc1cc2ncnc(Sc3cccc(NC(=O)Nc4cc(C5(C(F)(F)F)CC5)nn4-c4ccc(C)cc4)c3)c2cc1OC [Ex 347] | 250 to 500 nM |
| CC(C)(C)c1cc(NC(=O)Nc2cccc(Sc3ncnc4cc(F)c(F)cc34)c2)no1 [Ex 47] | 500 to 1000 nM |

Ask: Determine from records and report Kd for COCCOc1cc2ncnc(Sc3cccc(NC(=O)Nc4cc(C(F)(F)F)nn4-c4ccc(F)cc4)c3)c2cc1OC [Ex 242]
Result: > 1000 nM

Ask: Determine from records and report Kd for COc1cc2ncnc(Oc3cccc(NC(=O)Nc4cc(C5CCCC5)no4)c3)c2cc1OC [Ex 163]
Result: 250 to 500 nM

Ask: Determine from records and report Kd for COc1cc2ncnc(Oc3cccc(NC(=O)Nc4cc(C(C)(C)F)no4)c3)c2cc1OCCCS(C)(=O)=O [Ex 42]
Result: < 250 nM

Ask: Determine from records and report Kd for COc1cc2ncnc(Sc3cccc(NC(=O)Nc4cc(C(F)(F)F)nn4-c4ccc(C)cc4)c3)c2cc1OC [Ex 199]
Result: > 1000 nM

Ask: Determine from records and report Kd for COc1cc2ncnc(Oc3cc(NC(=O)Nc4cc(C(C)(C)C)nn4-c4ccc(C)cc4)c(F)cc3F)c2cc1OC [Ex 272]
Result: 500 to 1000 nM

Ask: Determine from records and report Kd for COCCOc1cc2ncnc(Oc3cccc(NC(=O)Nc4cc(C(C)(C)C)nn4-c4ccccc4)c3)c2cc1OC [Ex 210]
Result: > 1000 nM

Ask: Determine from records and report Kd for COCCOc1cc2ncnc(Sc3cccc(NC(=O)Nc4ccc(C(F)(F)F)c(F)c4)c3)c2cc1OC [Ex 231]
Result: 500 to 1000 nM

Ask: Determine from records and report Kd for COc1cc2ncnc(Oc3cccc(NC(=O)Nc4cc(C(F)(F)F)nn4-c4ccccc4)c3)c2cc1OC [Ex 161]
Result: 500 to 1000 nM

Ask: Determine from records and report Kd for COc1cc2ncnc(Oc3cccc(NC(=O)Nc4cc(C(C)(C)C)on4)c3)c2cc1O[C@H]1CCN(C(=O)OC(C)(C)C)C1 [Ex 108]
Result: 500 to 1000 nM

Ask: Determine from records and report Kd for COc1cc2nc(Cl)nc(Oc3cccc(NC(=O)Nc4cc(C(C)(C)C)on4)c3)c2cc1OC [Ex 310]
Result: 500 to 1000 nM

Ask: Determine from records and report Kd for COc1cc2ncnc(Sc3cccc(NC(=O)Nc4ccc(C(C)(C)C)cc4)c3)c2cc1OC [Ex 174]
Result: 250 to 500 nM

Ask: Determine from records and report Kd for COc1cc2c(Sc3cccc(NC(=O)Nc4ccc(OC)c(C(F)(F)F)c4)c3)ncnc2cc1OCCN1CCOCC1 [Ex 249]
Result: 250 to 500 nM

Ask: Determine from records and report Kd for COc1cc2ncnc(Oc3cccc(NC(=O)Nc4cc(C5CCOCC5)no4)c3)c2cc1OC [Ex 123]
Result: 250 to 500 nM

Ask: Determine from records and report Kd for COc1cc2ncnc(Oc3cccc(NC(=O)Nc4cc(C(F)(F)C(F)(F)F)nn4-c4ccccc4)c3)c2cc1OC [Ex 304]
Result: 250 to 500 nM

Ask: Determine from records and report Kd for COc1cc2ncnc(Oc3cccc(NC(=O)Nc4cc(C(C)(C)C)nn4-c4ccc(Cl)cc4)c3)c2cc1OC [Ex 365]
Result: 250 to 500 nM

Ask: Determine from records and report Kd for COc1cc2ncnc(Oc3cccc(NC(=O)Nc4cc(C(C)(C)C)nn4-c4ccc(C(F)(F)F)cc4)c3)c2cc1OC [Ex 373]
Result: 500 to 1000 nM

Ask: Determine from records and report Kd for CC(C)(C)c1cc(NC(=O)Nc2cccc(Sc3ncnc4cc5c(cc34)OCCO5)c2)no1 [Ex 54, hydrochloride]
Result: 500 to 1000 nM

Ask: Determine from records and report Kd for COCCOc1ccc2ncnc(Sc3cccc(NC(=O)Nc4cc(C(C)(C)C)on4)c3)c2c1 [Ex 87]
Result: 250 to 500 nM

Ask: Determine from records and report Kd for COc1cc2ncnc(Sc3cccc(NC(=O)Nc4ccc(C(F)(F)F)c(F)c4)c3)c2cc1OC [Ex 188]
Result: 250 to 500 nM

Ask: Determine from records and report Kd for COc1cc2ncnc(Oc3cccc(NC(=O)Nc4cc(Cl)cc(C(F)(F)F)c4)c3)c2cc1OC [Ex 140]
Result: 500 to 1000 nM

Ask: Determine from records and report Kd for COc1cc2ncnc(Sc3cccc(NC(=O)Nc4ccc(Cl)c(C(F)(F)F)c4)c3)c2cc1OC [Ex 186]
Result: 250 to 500 nM

The measured values listed here are drawn from patent US8618289B2.
